- System: L-363 (Plasma Cell Myeloma)
- test-details: combination Emax (second highest fraction inhibited in the dose matrix, 72 h); higher = more inhibition; extreme values may be limits of the assay
measured-endpoint: combination Emax
Form rule: numeric answer, no unit written next to it.

If you can, please state the reported combination Emax value of CS(=O)(=O)CCNCc1ccc(-c2ccc3ncnc(Nc4ccc(OCc5cccc(F)c5)c(Cl)c4)c3c2)o1 [Lapatinib] + NC1(c2ccc(-c3nc4ccn5c(=O)[nH]nc5c4cc3-c3ccccc3)cc2)CCC1 [MK-2206] (first compound max 10 µM, 7x7, partner max 10 µM) .
0.912

Request: NC1(C(=O)N[C@@H](CCO)c2ccc(Cl)cc2)CCN(c2ncnc3[nH]ccc23)CC1 [Capivasertib] + CC(C)n1c(=O)n(C)c2cnc3cc(F)c(-c4ccc(OCCCN5CCCCC5)nc4)cc3c21 [AZD1390] (first compound max 10 µM, 7x7, partner max 0.3 µM)
0.465

Request: Cc1c2c(nn1C)CSCc1cc(n(C)n1)CSc1cc(c3ccccc3c1)OCCCc1c(C(=O)O)n(C)c3c-2c(Cl)ccc13 [AZD5991] + Cc1cc2ncnn2cc1Nc1ncc2c(n1)n(C1CCOCC1)c(=O)n2C [AZD7648] (first compound max 1 µM, 7x7, partner max 10 µM)
1

Request: COc1nnc2ccc(N3CCC(c4ccc(OCCN5CCN(C)C(=O)[C@H]5C)cc4)CC3)nn12 [AZD5153] + CCN(CCO)CCCOc1ccc2c(Nc3cc(CC(=O)Nc4cccc(F)c4)[nH]n3)ncnc2c1 [AZD2811] (first compound max 1 µM, 7x7, partner max 1 µM)
0.589

Request: COc1cccc(OCCCN)c1-c1cc(Nc2cnc(C#N)cn2)n[nH]1 [Prexasertib] + O=C(c1cc(Cc2n[nH]c(=O)c3ccccc23)ccc1F)N1CCN(C(=O)C2CC2)CC1 [Olaparib] (first compound max 1 µM, 7x7, partner max 10 µM)
1

Request: COc1nnc2ccc(N3CCC(c4ccc(OCCN5CCN(C)C(=O)[C@H]5C)cc4)CC3)nn12 [AZD5153] + CC1(C)CCC(CN2CCN(c3ccc(C(=O)NS(=O)(=O)c4ccc(NCC5CCOCC5)c([N+](=O)[O-])c4)c(Oc4cnc5[nH]ccc5c4)c3)CC2)=C(c2ccc(Cl)cc2)C1 [Venetoclax] (first compound max 1 µM, 7x7, partner max 1 µM)
0.528

Request: COc1cc2c(cc1OCCCCCOc1cc3c(cc1OC)C(=O)N1C=C(C)C[C@H]1C=N3)N=C[C@@H]1CC(C)=CN1C2=O [SG3199] + O=C(c1cc(Cc2n[nH]c(=O)c3ccccc23)ccc1F)N1CCN(C(=O)C2CC2)CC1 [Olaparib] (first compound max 0.001 µM, 7x7, partner max 10 µM)
0.0669
